B1: SMTNL2 (parent)
chain: ETAAGKGKGEARARLKRSQSFGVA

Variants of: B1
protocol-details: protein stability index of a GFP-peptide fusion (GPS, HEK-293T) (PSI 1-6); higher = more stable;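 also: lentivirally expressed fusions sorted by FACS into six bins by GFP to DsRed ratio, PSI derived from sequencing read proportions per bin multiplied by bin number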
setup-conditions: c terminus: a fixed tail appended
result-type: protein stability index
Output: the number by itself.

"Q19C" yielded protein stability index of 4.09

Value of measured protein stability index for the entry "S20Q" : 4.08

The measured protein stability index associated with "K6L" reads 4.04

Kindly note the recorded protein stability index for "A13R" , which is 4.05

Documented protein stability index of "G5Y" : 4.07

Consider "K16F" . Its measured protein stability index is 3.89

So for "G5W" , the logged protein stability index turned out to be 4.06

# protein stability index of "E1H" = 3.94

The value of protein stability index measured for the variant "K8L" turned out to be 4

Sure, the documented protein stability index for "R12M" is 3.94

"Q19L" yielded protein stability index of 4.08

Cited source for all entries: the supplement of paper PMC10567573
